The reported numbers originate from patent US12486267B2.

- targetOfAssay: human TLR9 (Homo sapiens, UniProt Q9NR96)
- testDescription: TLR9 inhibition reporter assay (HEK-Blue cells, SEAP reporter)
- setupConditions: HEK-Blue cells overexpressing human TLR9; stimulated with ODN2006 5 nM; 22 hour incubation; SEAP readout
pIC50: −log10 of the molar value.
valueType: pIC50

{"columns": ["compound", "valueType", "valueReported"],
 "data": [
  ["COc1ccc(-c2nc3n(n2)CC(C2CC4CCC(C2)N4C2CCN(C4CC4)CC2)CC3)cc1OC (centres unmarked) [Example 145]", "pIC50", 6.47],
  ["COCCN1CCN(c2ccc(-c3cc(C)c4nc(-c5ccc(S(C)(=O)=O)cc5)cn4c3)cc2)CC1 [Example 105]", "pIC50", 6.00],
  ["CS(=O)(=O)c1ccc(-c2cn3cc(C4CCN(C5CCN(C6COC6)CC5)CC4)cc(F)c3n2)cc1 [Example 111]", "pIC50", 6.63],
  ["COc1ccc(-c2cn3cc(C4CCN(C5CCN(CC(C)C)CC5)CC4)cc(C)c3n2)cc1F [Example 6]", "pIC50", 6.60],
  ["CS(=O)(=O)c1ccc(-c2cn3cc(C4CCN(C5CCN(C6CC6)CC5)CC4)cc(F)c3n2)cc1 [Example 108]", "pIC50", 6.50]
]}

----------
- targetOfAssay: human TLR9 (Homo sapiens)
- Sequence (Q9NR96 26-1032): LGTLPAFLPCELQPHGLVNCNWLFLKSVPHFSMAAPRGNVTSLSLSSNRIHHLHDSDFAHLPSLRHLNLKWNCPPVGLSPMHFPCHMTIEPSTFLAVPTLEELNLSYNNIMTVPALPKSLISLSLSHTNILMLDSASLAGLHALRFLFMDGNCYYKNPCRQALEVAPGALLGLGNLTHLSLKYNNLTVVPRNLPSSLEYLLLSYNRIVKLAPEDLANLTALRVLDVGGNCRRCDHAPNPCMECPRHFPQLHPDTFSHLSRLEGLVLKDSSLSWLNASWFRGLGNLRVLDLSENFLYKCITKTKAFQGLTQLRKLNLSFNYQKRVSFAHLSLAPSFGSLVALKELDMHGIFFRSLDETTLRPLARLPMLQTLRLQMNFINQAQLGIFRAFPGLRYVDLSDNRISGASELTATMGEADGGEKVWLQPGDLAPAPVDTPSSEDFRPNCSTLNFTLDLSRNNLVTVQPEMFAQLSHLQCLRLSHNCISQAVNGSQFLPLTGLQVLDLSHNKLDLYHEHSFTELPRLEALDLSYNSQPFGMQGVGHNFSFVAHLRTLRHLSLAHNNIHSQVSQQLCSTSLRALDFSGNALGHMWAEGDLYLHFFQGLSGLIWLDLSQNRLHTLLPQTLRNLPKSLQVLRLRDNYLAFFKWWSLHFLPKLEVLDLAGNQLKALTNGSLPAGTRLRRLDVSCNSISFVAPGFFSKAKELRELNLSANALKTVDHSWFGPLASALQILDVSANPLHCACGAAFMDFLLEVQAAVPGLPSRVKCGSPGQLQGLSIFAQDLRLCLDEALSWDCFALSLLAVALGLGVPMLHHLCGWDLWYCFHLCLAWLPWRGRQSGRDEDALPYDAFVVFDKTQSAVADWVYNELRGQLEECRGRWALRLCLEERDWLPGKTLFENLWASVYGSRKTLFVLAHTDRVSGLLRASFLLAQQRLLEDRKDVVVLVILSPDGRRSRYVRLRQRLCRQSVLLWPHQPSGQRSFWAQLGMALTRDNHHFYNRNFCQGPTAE
- testDescription: TLR9 inhibition reporter assay (HEK-Blue cells, SEAP reporter)
- setupConditions: HEK-Blue cells overexpressing human TLR9; stimulated with ODN2006 5 nM; 22 hour incubation; SEAP readout
pIC50: −log10 of the molar value.

{"columns": ["compound", "pIC50"],
 "data": [
  ["CS(=O)(=O)c1ccc(-c2cn3cc(C4CCN(C5CC6CCC(C5)N6C5CCC5)CC4)cc(F)c3n2)cc1 (single isomer, unassigned) [Example 117]", 7.66],
  ["CC(C)CN1C2CCC1CC(N1CCC(c3cc(F)c4nc(-c5ccc(S(C)(=O)=O)cc5)cn4c3)CC1)C2 (single isomer, unassigned) [Example 113]", 7.51],
  ["Cc1cc(C2CCN(C3CC4CCC(C3)N4CC3CC3)CC2)cn2cc(-c3ccc(S(C)(=O)=O)cc3)nc12 (single isomer, unassigned) [Example 87]", 7.55],
  ["COc1ccc(-c2cn3c(n2)CCC(C2CCN(C4CCN(C(C)C)CC4)CC2)C3)cc1OC (single isomer, unassigned) [Example 35]", 7.38]
]}
